Data provenance is patent US12180146B2.

# Test system: spontaneously hypertensive rats (SHR)
# measurement-protocol: Antihypertensive activity test: blood pressure and heart rate of spontaneously hypertensive rats (SHR)
# Format: in vivo, rat
# condition-description: 200 mg/kg, before administration, M ± SD, n = 8
Where a name gives a salt, the structure may show the parent alone.
measured-endpoint: Blood pressure (SBP, mmHg) Baseline
Quick note: unit goes after the number.

Please supply the value of reported Blood pressure (SBP, mmHg) Baseline for the item Cc1ccc(C(O)CO)cc1 (centres unmarked)
187 ± 11.9 mmHg

Please supply the value of reported Blood pressure (SBP, mmHg) Baseline for the item CCc1cccc(C(O)CO)c1 (centres unmarked)
192 ± 7.98 mmHg

Please supply the value of reported Blood pressure (SBP, mmHg) Baseline for the item CCC(O)c1cccc(CO)c1 (centres unmarked)
190 ± 13.2 mmHg

Please supply the value of reported Blood pressure (SBP, mmHg) Baseline for the item CCc1ccc(C(O)CO)cc1 (centres unmarked)
184 ± 14.7 mmHg

Please supply the value of reported Blood pressure (SBP, mmHg) Baseline for the item COCCc1ccc(OCC(O)CNC(C)C)cc1 (centres unmarked) [Metoprolol Hydrochloride, reference compound]
186 ± 7.87 mmHg
